system: CSNK1G3; conditions: concentration: 1 μM, replicates: in singlicate; n = 1

{"columns": ["compound", "%Inh"],
 "data": [
  ["Cc1ccc(-c2nc(Nc3ccncc3)c3ccccc3n2)s1", "35%"],
  ["COc1cccc(NC(=O)Nc2ccc(C)c(-c3ccc(C(=O)Nc4ccncc4)cc3)c2)c1", "34%"],
  ["Nc1cccc(-c2ccc3c(N)n[nH]c3c2)n1", "19%"],
  ["CC(C)c1ccc(O)cc1Nc1ccnc2ccc(C(F)(F)F)cc12", "9%"],
  ["CC(=O)c1c(C)c2cnc(Nc3ccc(N4CCNCC4)cn3)nc2n(C2CCCC2)c1=O", "0%"],
  ["CS(=O)(=O)CCNCc1nc(-c2ccc3ncnc(Nc4ccc5c(cnn5Cc5ccccc5)c4)c3c2)cs1.Cl.Cl", "3%"],
  ["O=c1cc(N2CCOCC2)nc2n(Cc3ccccc3F)ccn12", "28%"],
  ["COc1cccc(C2=C(Nc3cc(Cl)c(O)c(Cl)c3)C(=O)NC2=O)c1", "25%"],
  ["Cc1c(Cn2c3ccccc3n3c(=O)cc(N4CCOCC4)nc23)cccc1C(F)(F)F", "17%"],
  ["COc1ccc(Nc2nccc(N3CCC(NC(=O)C(C)c4ccc(Cl)cc4)CC3)n2)cc1 (stereo not drawn)", "19%"],
  ["CC(=O)c1c(C)c2cnc(Nc3ccn(C)n3)nc2n(C2CCCC2)c1=O", "16%"],
  ["CNc1nc(-c2ccc3c(N)n[nH]c3c2)cc(N2C[C@@H](C(=O)NC3CCCCC3)OC[C@H]2C)n1", "26%"],
  ["CCn1c(-c2c(N)noc2C)nc2cnccc21", "9%"],
  ["COc1nccc(-c2c(-c3ccc(F)cc3)ncn2CCCN2CCOCC2)n1", "53%"],
  ["CC(C)c1cc(-c2ccc3c(N)n[nH]c3c2)nc(N)n1", "25%"],
  ["O=C(Nc1n[nH]c2nc(-c3ccco3)c(Br)cc12)C1CCN(Cc2ccccc2)C1.O=C(O)[C@H](O)[C@@H](O)C(=O)O (stereo not drawn)", "0%"],
  ["Cn1cncc1-c1cc2c(Nc3ccc(OCc4ccccc4)cc3)ncnc2cn1", "24%"],
  ["CCc1ccc(-c2ccc3c(c2)-c2n[nH]cc2S(=O)(=O)N3C)cc1", "0%"]
]}

###

system: RSK4(Kin.Dom.1-N-terminal); construct: gene RPS6KA6;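 note: kd values determined as follow-up on hits from a single-replicate KINOMEscan panel screen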

{"columns": ["line_notation", "unit", "Kd"],
 "data": [
  ["O=C(Nc1n[nH]c2nc(-c3cccs3)c(Br)cc12)C1CC1", "µM", 3.8]
]}

###

system: RIOK2; conditions: concentration: 1 μM, replicates: in singlicate; n = 1
value_kind: %Inh (%)

{"columns": ["molecule", "test_target", "value_kind", "observed_value"],
 "data": [
  ["COc1ccc(Nc2nccc(N3CCC(NC(=O)C(C)c4ccc(Cl)cc4)CC3)n2)cc1 (stereo not drawn) [GSK1379812]", "RIOK2", "%Inh", 0],
  ["Cc1nccc(-c2c(-c3ccc(F)cc3)ncn2CCCN2CCOCC2)n1.Cl [SB-282975]", "RIOK2", "%Inh", 14],
  ["O=C(Nc1n[nH]c2cc(-c3ccsc3)ccc12)C1CC1 [SB-732932]", "RIOK2", "%Inh", 16],
  ["Cc1ccc(NC(=O)Nc2ccc(Cl)cc2)cc1-c1ccc(C(=O)Nc2ccncc2)cc1 [GSK1398472]", "RIOK2", "%Inh", 0],
  ["O=C(Nc1n[nH]c2nc(-c3ccco3)c(Br)cc12)C1CCN(Cc2ccccc2)C1.O=C(O)[C@H](O)[C@@H](O)C(=O)O (stereo not drawn) [SB-742034]", "RIOK2", "%Inh", 7],
  ["CCc1ccc(-c2ccc3c(c2)-c2n[nH]cc2S(=O)(=O)N3C)cc1", "RIOK2", "%Inh", 0],
  ["CSc1ccc(-c2nc3n(c2-c2ccncc2)CCC3)cc1 [SKF-105561]", "RIOK2", "%Inh", 0],
  ["Cl.Cl.Cl.N#Cc1ccc(CCNc2nccc(-c3cccc(CN4CCNCC4)c3)n2)cc1 [GSK2137462]", "RIOK2", "%Inh", 42],
  ["Cc1ccc(NC(=O)Nc2ccccc2)cc1-c1ccc(C(=O)Nc2ccncc2)cc1 [GSK1398471]", "RIOK2", "%Inh", 0],
  ["COc1ccc2cc(-c3nc(-c4ccccc4C(C)C)[nH]c3-c3ccncc3)ccc2c1 [SB-660566]", "RIOK2", "%Inh", 0],
  ["COc1ccc(CSc2nnc(-c3ccc4nccn4c3)o2)cc1C(F)(F)F", "RIOK2", "%Inh", 32],
  ["O=c1cc(N2CCOCC2)nc2n(Cc3cccc(Cl)c3Cl)c3ccccc3n12 [GSK2299009]", "RIOK2", "%Inh", 17],
  ["Nc1nccc(-c2c(-c3ccc(F)cc3)ncn2C2CCN(Cc3ccccc3)CC2)n1 [SB-219980]", "RIOK2", "%Inh", 1],
  ["CS(=O)(=O)CCNCc1nc(-c2ccc3ncnc(Nc4ccc(OCc5ccccc5)c(Cl)c4)c3c2)cs1.Cl [GW582764]", "RIOK2", "%Inh", 0],
  ["CC[C@@H]1CO[C@H](C(=O)Nc2ccccc2)CN1c1cc(-c2ccc3c(N)n[nH]c3c2)nc(NC)n1 [GSK2376236]", "RIOK2", "%Inh", 4],
  ["CCn1c(-c2c(N)noc2C)nc2cnccc21 [SB-737856]", "RIOK2", "%Inh", 0],
  ["COC(=O)C(Cc1ccccc1)NC(=O)NC1CCN(c2ccnc(Nc3ccc(F)cc3)n2)C1 (stereo not drawn) [GSK1379714]", "RIOK2", "%Inh", 0],
  ["COc1ccc(-c2coc3ccc(-c4nnc(C)o4)cc23)cc1", "RIOK2", "%Inh", 15]
]}

###

tested on: INSRR; settings: concentration: 1 μM, replicates: in singlicate; n = 1

{"columns": ["compound", "unit", "%Inh"],
 "data": [
  ["COc1ccc(CSc2nnc(-c3ccc4ncsc4c3)o2)cc1C(F)(F)F", "%", 1],
  ["Cc1ccc(NC(=O)c2ccc(Cl)cc2)cc1-c1ccc(C(=O)Nc2ccncc2)cc1", "%", 0],
  ["CNC(=O)c1ccc(C)c(-n2c(C)cc(OCc3ccc(F)cc3F)c(Br)c2=O)c1", "%", 6],
  ["Cn1cncc1-c1cc2c(Nc3ccc(OCc4ccccc4)cc3)ncnc2cn1", "%", 0],
  ["COc1ccc(Nc2nccc(N3CCC(NC(=O)C(C)c4ccc(Cl)cc4)C3)n2)cc1 (centres unmarked)", "%", 28]
]}

###

system: NEK3; conditions: concentration: 1 μM, replicates: in singlicate; n = 1

{"columns": ["compound", "unit", "%Inh"],
 "data": [
  ["O=C(Nc1n[nH]c2cc(-c3ccsc3)ccc12)C1CC1", "%", 24],
  ["CS(=O)(=O)CCNCc1nc(-c2ccc3ncnc(Nc4ccc5c(cnn5Cc5ccccc5)c4)c3c2)cs1.Cl.Cl", "%", 2],
  ["Cc1ccc(-c2nc(Nc3ccncc3)c3ccccc3n2)s1", "%", 5],
  ["COc1ccc(CSc2nnc(-c3ccc4c(c3)CCO4)o2)cc1", "%", 26],
  ["Nc1nccc(-c2c(-c3ccc(F)cc3)ncn2C2CCN(Cc3ccccc3)CC2)n1", "%", 0],
  ["CC(C)c1cc(-c2ccc3c(N)n[nH]c3c2)nc(N)n1", "%", 0],
  ["COC(=O)C(NC(=O)NC1CCN(c2ccnc(Nc3ccc(F)cc3)n2)C1)c1ccccc1 (centres unmarked)", "%", 9],
  ["Cc1ccc(NC(=O)Nc2ccc(Cl)cc2)cc1-c1ccc(C(=O)Nc2ccncc2)cc1", "%", 10]
]}

###

system: BMPR1A; conditions: concentration: 1 μM, replicates: in singlicate; n = 1
Catalogue of %Inh values
value_kind: %Inh

{"columns": ["molecule", "observed_value"],
 "data": [
  ["c1ccc(-c2ccnc3[nH]ccc23)cc1 [SB-693578]", "1%"],
  ["Cc1ccc(-c2nc(Nc3ccncc3)c3ccccc3n2)s1 [GSK189015]", "0%"],
  ["COC(=O)C(Cc1ccccc1)NC(=O)NC1CCN(c2ccnc(Nc3ccc(F)cc3)n2)C1 (stereo not drawn) [GSK1379714]", "0%"],
  ["Fc1ccc(-c2nn3cccc(F)c3c2-c2ccncc2)cc1 [GW475620]", "24%"],
  ["CC[C@@H]1CO[C@H](C(=O)Nc2ccccc2)CN1c1cc(-c2ccc3c(N)n[nH]c3c2)nc(NC)n1 [GSK2376236]", "0%"],
  ["COc1cccc(NC(=O)Nc2ccc(C)c(-c3ccc(C(=O)Nc4ccncc4)cc3)c2)c1 [GSK1398474]", "0%"],
  ["CCc1ccc(-c2ccc3c(c2)-c2n[nH]cc2S(=O)(=O)N3C)cc1", "0%"],
  ["Cn1cnc2c(N)ncnc21 [SKF-97623]", "0%"],
  ["COC(=O)c1cccc(NC(=O)NC2CCN(c3ccnc(Nc4ccc(F)cc4)n3)C2)c1 (stereo not drawn) [GSK1379725]", "0%"]
]}
